For each of the binders below, state its Mean % WT Binding.
TARGET SYSTEM: human CD33 L134R (human, UniProt P20138 18-364)
Sequence (P20138 18-364 L134R limits assumed): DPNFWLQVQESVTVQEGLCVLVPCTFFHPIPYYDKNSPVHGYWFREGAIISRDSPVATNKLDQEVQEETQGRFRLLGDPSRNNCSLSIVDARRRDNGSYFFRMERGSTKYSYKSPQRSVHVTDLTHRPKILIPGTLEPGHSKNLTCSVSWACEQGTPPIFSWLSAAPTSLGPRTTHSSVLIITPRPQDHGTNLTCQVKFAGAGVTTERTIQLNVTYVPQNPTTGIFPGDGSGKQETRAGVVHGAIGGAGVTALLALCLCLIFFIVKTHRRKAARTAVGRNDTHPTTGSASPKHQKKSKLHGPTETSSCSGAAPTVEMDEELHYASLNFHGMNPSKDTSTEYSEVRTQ
ASSAY NAME: flow cytometry, HEK293-T, IgG;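 note: CD33 point mutants transiently expressed, antibody binding measured by fluorescence in duplicate, background subtracted and scaled to binding on wild-type CD33 as 100%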
One number for each entry, in % WT binding.

Field: Mean % WT Binding. Fill in for each record below.
1. Refmab #2 (antibody, human IgG1, V domains shown, tested in IgG format) VH: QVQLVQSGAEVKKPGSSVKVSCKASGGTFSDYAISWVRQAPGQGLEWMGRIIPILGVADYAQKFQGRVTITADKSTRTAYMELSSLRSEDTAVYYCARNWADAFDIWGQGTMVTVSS VL: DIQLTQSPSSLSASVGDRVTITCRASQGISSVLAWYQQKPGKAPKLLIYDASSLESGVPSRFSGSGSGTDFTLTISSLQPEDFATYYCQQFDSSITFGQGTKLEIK
2. Refmab #4 (antibody, human IgG1, V domains shown, tested in IgG format) VH: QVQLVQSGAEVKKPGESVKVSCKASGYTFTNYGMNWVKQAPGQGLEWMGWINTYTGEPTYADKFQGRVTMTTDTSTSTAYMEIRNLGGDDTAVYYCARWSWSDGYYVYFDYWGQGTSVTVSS VL: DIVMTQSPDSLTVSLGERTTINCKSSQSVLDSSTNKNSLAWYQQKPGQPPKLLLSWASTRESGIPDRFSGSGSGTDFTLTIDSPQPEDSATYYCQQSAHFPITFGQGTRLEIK
3. Refmab #3 (antibody, human IgG1, V domains shown, tested in IgG format) VH: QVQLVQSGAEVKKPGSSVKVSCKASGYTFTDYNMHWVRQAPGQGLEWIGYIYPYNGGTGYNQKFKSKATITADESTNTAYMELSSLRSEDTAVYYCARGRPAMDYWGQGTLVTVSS VL: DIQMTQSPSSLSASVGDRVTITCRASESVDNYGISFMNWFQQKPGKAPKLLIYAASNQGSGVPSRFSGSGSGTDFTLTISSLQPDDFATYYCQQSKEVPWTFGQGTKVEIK

1: 2.5; 2: 2.4; 3: 1
